# System: C. sporogenes CBC5
# method-description: Deferred antagonism assay
# Format: cell-based, Clostridium sporogenes
# Parameters: key: + = Enhanced bioactivity relative to control; − = Bioactivity equal to or less than control; NA = no activity evident
# test-settings: producing strain
Ends that are not written are not given here.
value-kind: Bioactivity relative to control

# substance, study-system, reported-value
records = [
    ("NisinA K22L (ITSISLCTPGCKTGALMGCNMLTATCHCSIHVSK; not fully specified; cysteine pairing not given here; also: lantibiotic nisin-A; UniProt P13068 24-57, looked up, variant K22L) [nisin A derivative, hinge substitution K22L]", "C. sporogenes CBC5", "−"),
    ("N20W: nisin A derivative, hinge substitution N20W (ITSISLCTPGCKTGALMGCWMKTATCHCSIHVSK; cysteine pairing not given here; also: lantibiotic nisin-A; UniProt P13068 24-57, looked up, variant N20W)", "C. sporogenes CBC5", "−"),
]

====

# System: L. monocytogenes CBC1
# method-description: Deferred antagonism assay
# Format: cell-based, Listeria monocytogenes
# Set-up: key: + = Enhanced bioactivity relative to control; − = Bioactivity equal to or less than control; NA = no activity evident
# test-settings: producing strain; L. mono CBC1
Ends that are not written are not given here.
value-kind: Bioactivity relative to control

Solved cases (5 shown):
# substance, value-kind, reported-value
measured = [
    ("NisinA K22Q (ITSISLCTPGCKTGALMGCNMQTATCHCSIHVSK; not fully specified; also: lantibiotic nisin: dehydrated residues and thioether rings not placed; UniProt P13068 24-57, looked up, variant K22Q) [nisin A derivative, hinge substitution K22Q]", "Bioactivity relative to control", "−"),
    ("NisinA N20P (ITSISLCTPGCKTGALMGCPMKTATCHCSIHVSK; not fully specified; also: lantibiotic nisin: dehydrated residues and thioether rings not placed; UniProt P13068 24-57, looked up, variant N20P) [nisin A derivative, hinge substitution N20P]", "Bioactivity relative to control", "−"),
    ("N20I: nisin A derivative, hinge substitution N20I (ITSISLCTPGCKTGALMGCIMKTATCHCSIHVSK; cysteine pairing not given here; also: lantibiotic nisin-A; UniProt P13068 24-57, looked up, variant N20I)", "Bioactivity relative to control", "−"),
    ("NisinA N20S (ITSISLCTPGCKTGALMGCSMKTATCHCSIHVSK; not fully specified; also: lantibiotic nisin: dehydrated residues and thioether rings not placed; UniProt P13068 24-57, looked up, variant N20S) [nisin A derivative, hinge substitution N20S]", "Bioactivity relative to control", "−"),
    ("M21C: nisin A derivative, hinge substitution M21C (ITSISLCTPGCKTGALMGCNCKTATCHCSIHVSK; cysteine pairing not given here; also: lantibiotic nisin-A; UniProt P13068 24-57, looked up, variant M21C)", "Bioactivity relative to control", "−"),
]

So what's the measured Bioactivity relative to control for this one? NisinA K22G (ITSISLCTPGCKTGALMGCNMGTATCHCSIHVSK; cysteine pairing not given here; also: lantibiotic nisin-A; UniProt P13068 24-57, looked up, variant K22G) [nisin A derivative, hinge substitution K22G] −

So what's the measured Bioactivity relative to control for this one? K22D: nisin A derivative, hinge substitution K22D; peptide not detected by CMS (ITSISLCTPGCKTGALMGCNMDTATCHCSIHVSK; cysteine pairing not given here; also: lantibiotic nisin-A; UniProt P13068 24-57, looked up, variant K22D) −
